B1: C8orf76 (parent)
chain: YCAKLCEPQWFYEETESSDDVEVL

variants of: B1; test: protein stability index of a GFP-peptide fusion (GPS, HEK-293T) (PSI 1-6); higher = more stable; settings: c terminus: a fixed tail appended;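 also: lentivirally expressed fusions sorted by FACS into six bins by GFP to DsRed ratio, PSI derived from sequencing read proportions per bin multiplied by bin number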
metric: protein stability index
Keep it simple and answer with nothing but the number.

Query :: Quick one: protein stability index for YCAKLCEPQWFYEFTESSDDVEVL ?
Result :: 2.24

Query :: Quick one: protein stability index for YEAKLCEPQWFYEETESSDDVEVL ?
Result :: 4.91

Query :: Quick one: protein stability index for YCAKLCEPQWFYEETESSDDVECL ?
Result :: 2.47

Query :: Quick one: protein stability index for YCAKLCEPQWFYVETESSDDVEVL ?
Result :: 1.57

Query :: Quick one: protein stability index for YCAKLCEPQWFYEETQSSDDVEVL ?
Result :: 1.54

Query :: Quick one: protein stability index for YCAPLCEPQWFYEETESSDDVEVL ?
Result :: 2.43

Query :: Quick one: protein stability index for YCAKLCEPYWFYEETESSDDVEVL ?
Result :: 2.66

Query :: Quick one: protein stability index for YCAKLCEPQWFYEETEGSDDVEVL ?
Result :: 3.01

Query :: Quick one: protein stability index for YCAKLCEPQVFYEETESSDDVEVL ?
Result :: 3.35

Query :: Quick one: protein stability index for YCAKLCEVQWFYEETESSDDVEVL ?
Result :: 2.19

Query :: Quick one: protein stability index for TCAKLCEPQWFYEETESSDDVEVL ?
Result :: 5.11
